B1: VTI1B (parent)
chain: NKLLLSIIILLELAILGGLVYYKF

Variants of: B1
experiment_notes: protein stability index of a GFP-peptide fusion (GPS, HEK-293T) (PSI 1-6); higher = more stable;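 further: lentivirally expressed fusions sorted by FACS into six bins by GFP to DsRed ratio, PSI derived from sequencing read proportions per bin multiplied by bin number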
experimental_conditions: c terminus: a fixed tail appended
Measured protein stability index, listed per entry.
outcome_measure: protein stability index

monomer_sequence	outcome_measure	meas_value
NKLLLSIIILNELAILGGLVYYKF [L11N]	protein stability index	3.97
NKLLLSIIILLELANLGGLVYYKF [I15N]	protein stability index	1.43
NKLLLSITILLELAILGGLVYYKF [I8T]	protein stability index	3.41
NKLLLSIIILLELAILGGLNYYKF [V20N]	protein stability index	2.81
NKLLLSIIILLELAILGGLVYYKH [F24H]	protein stability index	2.07
NKLLLSIIPLLELAILGGLVYYKF [I9P]	protein stability index	3.12
NKLLLSIIHLLELAILGGLVYYKF [I9H]	protein stability index	2.47
NKLLRSIIILLELAILGGLVYYKF [L5R]	protein stability index	1.8
NKLLLSIIILLELAILGILVYYKF [G18I]	protein stability index	3.09
NKCLLSIIILLELAILGGLVYYKF [L3C]	protein stability index	2.54
NKLLLSIIILLELAILGRLVYYKF [G18R]	protein stability index	2.65

The reported numbers originate from the supplement of paper PMC10567573.
